pEC50: recorded values
- target: T1, Homo sapiens Beta-Nerve Growth Factor (beta-NGF) (Homo sapiens, UniProt P01138 122-241)
- T1 construct: Biotinylated and held on neutravidin plates in the ELISA; also called huNGF; B-NGF
- T1 sequence (P01138 122-241): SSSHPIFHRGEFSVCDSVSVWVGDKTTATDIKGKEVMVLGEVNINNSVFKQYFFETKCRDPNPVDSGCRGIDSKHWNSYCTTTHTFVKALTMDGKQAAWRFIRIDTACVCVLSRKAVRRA
- method notes: antigen binding ELISA: biotinylated NGF on neutravidin plates, anti-human Fc-HRP, OD at 450 nm
pEC50: −log10 of the molar value.
measured endpoint: pEC50

>  <binder>
Antibody Ab19 (antibody, human IgG1, kappa, N297A, V domains shown) VH: QSVEASGGRLVMPGGSLTLTCTASGFSLSTYWMSWVRQAPGKGLEWIGDIYFSNEETNYATWAKGRFTISKTSTTVDLNVISPTTEDTATYFCARGSPDVEIAIDMWGQGTLVTVSS VL: AAVLTQTPSPVSAAVGGTVSISCQSSQNVYKNNYLSWYQQKPGQPPKLLIYKASTLASGVPSRFKGSGSGTDFTLTISDVQCDAAATYYCAGGYSSSSDNAFGGGTEVVVKR

>  <quantitative result>
9.36

$$$$
>  <binder>
Antibody Ab18 (antibody, human IgG1, kappa, N297A, V domains shown) VH: EVQLVESGGGLVQPGGSLRLSCAASGFTVSGYNLVWVRQAPGKGLEWVGFISYGDTTYYASSAKGRFTISRDNSKNTLYLQMNSLRAEDTAVYYCARETANTYDYGIWGQGTLVTVSS VL: DIQMTQSPSTLSASVGDRVTITCQASQTISNYLAWYQQKPGKAPKLLIYGASNLESGVPSRFSGSGSGTEFTLTISSLQPDDFATYYCQQGYTISNVDNNVFGGGTKVEIKR

>  <quantitative result>
9.25

$$$$
>  <binder>
Antibody Ab12 (antibody, human IgG1, kappa, N297A, V domains shown) VH: QVQLVESGGGVVQPGRSLRLSCAASGFSLSGYDMSWVRQAPGKGLEWVGLISYDGNTYYATSAKGRFTISRDNSKNTLYLQMSSLRAEDTAVYYCARSLYAGPNAGIGPFNIWGQGTLVTVSS VL: AFQMTQSPSSLSASVGDRVTITCQASQNIVTNLAWYQQKPGKVPKLLIYGASTLASGVPSRFSGSGSGTDFTLTISSLQPEDVATYYCQSYDGFNSAGFGGGTKVEIKR

>  <quantitative result>
9.11

$$$$
>  <binder>
Antibody Ab9 (antibody, human IgG1, kappa, N297A, V domains shown) VH: QSVEESGGRLVTPGTPLTLTCTVSGIDLSMYSMGWVRQAPGKGLEYIGWISYGGTAYYASWAKGRFTISKTSTTVELKITSPTIEDTATYFCARETPVNYYLDIWGQGTLVTVSS VL: AYDMTQTPASVSAAVGGTVTIKCQASENIGSYLAWYQQKPGQPPELLIYRASTLASGVPSRFKGSGSGTQFTLTISGVECADAATYYCQQGYNSENLDNAFGGGTEVVVKR

>  <quantitative result>
9.66

$$$$
>  <binder>
Antibody Ab11 (antibody, human IgG1, kappa, N297A, V domains shown) VH: QSLEESGGRLVTPGTPLTLTCTASGFSLSGYDMSWVRQAPGKGLEYIGLISYDGNTYYATWAKGRFTISKTSTTVDLKITSPTTEDTATYFCARSLYAGPNAGIGPFNIWGQGTLVTVSS VL: AFELTQTPSSVEAAVGGTVTIKCQASQNIVTNLAWYQQKPGQPPKLLIYGASTLASGVSSRFKGSGSGTQFTLTISDLECADAATYFCQSYDGFNSAGFGGGTEVVVKR

>  <quantitative result>
9.42

$$$$
>  <binder>
Antibody Ab17 (antibody, human IgG1, kappa, N297A, V domains shown) VH: QSLEESGGRLVTPGGSLTLTCAASGFSLTGYNLVWVRQAPGKGLEWIGFISYGDTTYYASWAKGRFTISKTSTTVTLTITDLQPSDTGTYFCARETANTYDYGIWGPGTLVTVSS VL: AIEMTQTPFSVSAAVGGTVTIKCQASQTISNYLAWYQQKPGQPPKLLIYGASNLESGVPSRFKGSGSGTQFTLTISDLECDDAATYYCQQGYTISNVDNNVFGGGTEVVVKR

>  <quantitative result>
9.15

$$$$
>  <binder>
Antibody Ab15 (antibody, human IgG1, kappa, N297A, V domains shown) VH: QSVEESGGRLVTPGTPLTLTCTVSGIDLSSYAMIWVRQAPGKGLEYIGIIWSGGTYYATWAKGRFTISKTSTTVDLQITSPTTEDAATYFCAAGGGSIYDVWGPGTLVTVSS VL: AAVLTQTPSPVSAAVGDTVTIKCQSSQSVYKNNYLSWYQQKPGQPPKLLIYDASNLPSGVPSRFSGSGSGTQFTLTISGVQCDDAATYYCLGDYDDDTDNGFGGGTEVVVKR

>  <quantitative result>
9.62

$$$$

The measurements presented in this section are drawn from patent US20170051048A1.
